STUDY_TARGET: Histone deacetylase 8 (Homo sapiens, UniProt Q9BY41)
Sequence (Q9BY41 whole entry): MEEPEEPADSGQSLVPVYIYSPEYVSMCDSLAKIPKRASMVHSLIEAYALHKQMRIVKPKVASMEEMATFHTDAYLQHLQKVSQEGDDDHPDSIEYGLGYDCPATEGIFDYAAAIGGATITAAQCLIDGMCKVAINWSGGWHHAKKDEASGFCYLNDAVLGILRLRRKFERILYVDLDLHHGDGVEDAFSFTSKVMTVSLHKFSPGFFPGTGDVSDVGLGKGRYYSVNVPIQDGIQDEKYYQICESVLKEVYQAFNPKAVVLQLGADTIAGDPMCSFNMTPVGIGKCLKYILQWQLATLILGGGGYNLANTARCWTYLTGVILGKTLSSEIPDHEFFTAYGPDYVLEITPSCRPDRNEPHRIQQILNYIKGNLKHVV
ASSAY_METRIC: IC50

CC(C)(C)c1[nH]c2ccccc2c1[C@H]1CCCN(Cc2ccc(/C=C/C(=O)NO)cc2F)C1 = 217 nM

For the next question, use this compound.
Enter measured IC50, system Histone deacetylase 8 (Homo sapiens, UniProt Q9BY41), for the compound shown: CC(C)(C)c1[nH]c2ccccc2c1[C@@H]1CCCN(Cc2ccc(/C=C/C(=O)NO)cc2F)C1
364 nM

----------
Listed here: items and their measured IC50.
TEST_METHOD_NOTES: Antiproliferative activity against human H1299 cells by MTS assay
Assay type: functional, cell-based
CONDITION_DETAILS: NCI-H1299
Give a bare numeral; the unit nM is implied.

O=C(/C=C/c1ccc(CN2CCCC(c3c[nH]c4ccccc34)C2)c(F)c1)NO (stereo not drawn) = 3520
Cc1[nH]c2ccccc2c1CCN1CCc2ccc(/C=C/C(=O)NO)cc2C1 = 165
Cc1[nH]c2ccccc2c1CCN1CCc2cc(/C=C/C(=O)NO)ccc2C1 = 725
Cc1[nH]c2ccccc2c1C1CCN(Cc2ccc(/C=C/C(=O)NO)cc2)C1 (stereo not drawn) = 14

Report IC50, nothing else, for this compound: O=C(/C=C/c1ccc(CN2CCCC(c3c(-c4ccccc4)[nH]c4ccccc34)C2)c(F)c1)NO (stereo not drawn)
106

Report IC50, nothing else, for this compound: O=C(/C=C/c1ccc(CN2CCCC(c3c[nH]c4ccccc34)C2)cc1)NO (stereo not drawn)
141

Report IC50, nothing else, for this compound: CC(C)(C)c1[nH]c2ccccc2c1C1CCCN(Cc2ccc(/C=C/C(=O)NO)cc2Cl)C1 (stereo not drawn)
60

Report IC50, nothing else, for this compound: Cc1[nH]c2ccccc2c1CCN1Cc2ccc(/C=C/C(=O)NO)cc2C1
232

Report IC50, nothing else, for this compound: CC(C)(C)c1[nH]c2ccccc2c1C1CCCN(Cc2ccc(/C=C/C(=O)NO)cc2)C1 (stereo not drawn)
6.3

Report IC50, nothing else, for this compound: CC(C)(C)c1[nH]c2ccccc2c1C1CCCN(Cc2ccc(/C=C/C(=O)NO)cc2F)C1 (stereo not drawn)
20

Report IC50, nothing else, for this compound: O=C(/C=C/c1ccc(CN(CCO)CCc2c[nH]c3ccccc23)cc1)NO
161

Report IC50, nothing else, for this compound: Cc1[nH]c2ccccc2c1CCN1CCCC1c1ccc(/C=C/C(=O)NO)cc1 (stereo not drawn)
4.3

Report IC50, nothing else, for this compound: CC(C)(C)c1[nH]c2ccccc2c1[C@@H]1CCCN(Cc2ccc(/C=C/C(=O)NO)cc2F)C1
443

Report IC50, nothing else, for this compound: Cc1[nH]c2ccccc2c1CC1CCCCN1Cc1ccc(/C=C/C(=O)NO)cc1 (stereo not drawn)
153

Report IC50, nothing else, for this compound: CC(C)(C)c1[nH]c2ccccc2c1[C@H]1CCCN(Cc2ccc(/C=C/C(=O)NO)cc2F)C1
5.4

Report IC50, nothing else, for this compound: O=C(/C=C/c1ccc(CN2CCCC(c3c(-c4ccccc4)[nH]c4ccccc34)C2)cc1)NO (stereo not drawn)
31

Report IC50, nothing else, for this compound: Cc1[nH]c2ccccc2c1C1CCCN(Cc2ccc(/C=C/C(=O)NO)cc2)C1 (stereo not drawn)
31

----------
TEST_METHOD_NOTES: Association constant, pKa at pH 2 to 12
Assay type: physicochemical
Listed here: items and their measured pKa.
Answer with the value's number alone.

// known answers, use as guide
CC(C)(C)c1[nH]c2ccccc2c1C1CCCN(Cc2ccc(/C=C/C(=O)NO)cc2Cl)C1 (configuration not stated) = 7.4
O=C(/C=C/c1ccc(CN2CCCC(c3c(-c4ccccc4)[nH]c4ccccc34)C2)c(F)c1)NO (configuration not stated) = 7.4
O=C(/C=C/c1ccc(CN2CCCC(c3c[nH]c4ccccc34)C2)cc1)NO (configuration not stated) = 7.3
O=C(/C=C/c1ccc(CN2CCCC(c3c(-c4ccccc4)[nH]c4ccccc34)C2)cc1)NO (configuration not stated) = 7.7
Cc1[nH]c2ccccc2c1C1CCCN(Cc2ccc(/C=C/C(=O)NO)cc2)C1 (configuration not stated) = 7.8

Report pKa, nothing else, for this compound: CC(C)(C)c1[nH]c2ccccc2c1C1CCCN(Cc2ccc(/C=C/C(=O)NO)cc2F)C1 (configuration not stated)
7.3

Report pKa, nothing else, for this compound: CC(C)(C)c1[nH]c2ccccc2c1C1CCCN(Cc2ccc(/C=C/C(=O)NO)cc2)C1 (configuration not stated)
7.8

----------
Listed here: items and their measured pIC50.
STUDY_TARGET: Histone deacetylase 1 (Homo sapiens)
Sequence (Q13547 whole entry): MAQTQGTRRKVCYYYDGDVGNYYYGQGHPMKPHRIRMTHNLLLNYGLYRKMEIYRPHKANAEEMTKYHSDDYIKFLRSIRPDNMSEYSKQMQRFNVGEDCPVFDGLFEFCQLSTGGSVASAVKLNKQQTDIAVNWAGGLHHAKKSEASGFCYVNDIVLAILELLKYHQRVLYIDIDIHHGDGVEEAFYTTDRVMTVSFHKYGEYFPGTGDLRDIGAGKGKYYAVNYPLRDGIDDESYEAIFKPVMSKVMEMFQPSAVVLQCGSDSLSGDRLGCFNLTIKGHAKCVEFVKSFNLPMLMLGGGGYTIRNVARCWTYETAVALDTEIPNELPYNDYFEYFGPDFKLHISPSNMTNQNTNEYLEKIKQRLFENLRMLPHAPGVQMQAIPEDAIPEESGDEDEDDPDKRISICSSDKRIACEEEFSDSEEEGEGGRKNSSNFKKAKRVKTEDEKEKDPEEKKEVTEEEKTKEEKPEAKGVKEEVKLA
TEST_METHOD_NOTES: Inhibition of FLAG-tagged HDAC1 expressed in HEK293 cells by fluorescent assay
Answer as the number alone; pIC50 is minus log10 of concentration in mol/L.

// known answers, use as guide
Cc1[nH]c2ccccc2c1C1CCN(Cc2ccc(/C=C/C(=O)NO)cc2)C1 (configuration not stated) = 8.55
O=C(/C=C/c1ccc(CN2CCCC(c3c[nH]c4ccccc34)C2)cc1)NO (configuration not stated) = 7.96
Cc1[nH]c2ccccc2c1CC1CCCCN1Cc1ccc(/C=C/C(=O)NO)cc1 (configuration not stated) = 7.62
Cc1[nH]c2ccccc2c1CCN1CCc2ccc(/C=C/C(=O)NO)cc2C1 = 7.89
Cc1[nH]c2ccccc2c1CCN1CCc2cc(/C=C/C(=O)NO)ccc2C1 = 7.39
O=C(/C=C/c1ccc(CN2CCCC(c3c(-c4ccccc4)[nH]c4ccccc34)C2)c(F)c1)NO (configuration not stated) = 7.80

Report pIC50, nothing else, for this molecule: Cc1[nH]c2ccccc2c1CCN1Cc2ccc(/C=C/C(=O)NO)cc2C1
7.57

----------
STUDY_TARGET: Voltage-gated inwardly rectifying potassium channel KCNH2 (Homo sapiens)
Sequence (Q12809 whole entry): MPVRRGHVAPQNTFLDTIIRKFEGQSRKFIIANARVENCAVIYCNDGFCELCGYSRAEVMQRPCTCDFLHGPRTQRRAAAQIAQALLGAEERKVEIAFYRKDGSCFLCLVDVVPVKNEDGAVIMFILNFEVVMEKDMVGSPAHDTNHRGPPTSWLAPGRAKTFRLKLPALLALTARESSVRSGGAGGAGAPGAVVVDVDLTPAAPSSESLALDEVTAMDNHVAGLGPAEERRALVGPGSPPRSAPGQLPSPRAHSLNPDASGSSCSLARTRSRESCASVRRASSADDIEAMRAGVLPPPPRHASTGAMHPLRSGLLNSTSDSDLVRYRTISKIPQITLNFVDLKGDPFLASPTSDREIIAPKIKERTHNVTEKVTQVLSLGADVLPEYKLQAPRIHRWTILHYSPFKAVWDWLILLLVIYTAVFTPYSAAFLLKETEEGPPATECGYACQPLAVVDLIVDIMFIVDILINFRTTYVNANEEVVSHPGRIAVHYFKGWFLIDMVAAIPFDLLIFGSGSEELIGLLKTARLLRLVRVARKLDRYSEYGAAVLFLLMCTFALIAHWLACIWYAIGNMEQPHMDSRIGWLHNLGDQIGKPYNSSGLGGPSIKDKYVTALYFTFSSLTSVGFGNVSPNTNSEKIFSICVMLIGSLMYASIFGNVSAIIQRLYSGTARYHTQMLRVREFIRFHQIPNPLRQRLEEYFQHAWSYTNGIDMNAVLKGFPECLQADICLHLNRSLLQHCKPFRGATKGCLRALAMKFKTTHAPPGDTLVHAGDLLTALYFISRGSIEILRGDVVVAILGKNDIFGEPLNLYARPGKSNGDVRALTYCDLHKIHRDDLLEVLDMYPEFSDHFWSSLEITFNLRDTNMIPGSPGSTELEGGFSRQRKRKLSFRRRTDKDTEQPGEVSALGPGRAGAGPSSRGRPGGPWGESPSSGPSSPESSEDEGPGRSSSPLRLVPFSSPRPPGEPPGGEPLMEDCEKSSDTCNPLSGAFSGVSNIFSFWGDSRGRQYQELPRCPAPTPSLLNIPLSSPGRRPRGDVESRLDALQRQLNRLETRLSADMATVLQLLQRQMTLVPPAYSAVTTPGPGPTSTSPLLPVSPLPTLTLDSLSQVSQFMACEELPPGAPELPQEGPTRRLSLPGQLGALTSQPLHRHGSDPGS
TEST_METHOD_NOTES: Inhibition of human ERG expressed in CHO cells by automated patch clamp electrophysiology assay
ASSAY_METRIC: IC50 (µM)
Give a bare numeral; the unit µM is implied.

// known answers, use as guide
Cc1[nH]c2ccccc2c1CCN1CCc2ccc(/C=C/C(=O)NO)cc2CC1 = 3.2
Cc1[nH]c2ccccc2c1C1CCCN(Cc2ccc(/C=C/C(=O)NO)cc2)C1 (centres undefined) = 27.6
CC(C)(C)c1[nH]c2ccccc2c1C1CCCN(Cc2ccc(/C=C/C(=O)NO)cc2)C1 (centres undefined) = 13.5

For the next question, use this compound.
Enter measured IC50, system Voltage-gated inwardly rectifying potassium channel KCNH2 (Homo sapiens), for the compound shown: CC(C)(C)c1[nH]c2ccccc2c1C1CCCN(Cc2ccc(/C=C/C(=O)NO)cc2Cl)C1 (centres undefined)
9.9
